# SYSTEM_NAME: T1, cSNK:BSA conjugate (bovine, head-to-tail cyclized; conjugated to BSA carrier)
# T1 construct: also called BSA-cSNK
# ASSAY_REMARKS: BLI (Octet), KD2
Use Kd to assign classes; range list: bottom range: < 4 nM; center range: ≥ 4 nM and < 9 nM; top range: ≥ 9 nM

# BINDER, CATEGORY_LABEL
rows = [
    ("5E3HCDR3-A210G (antibody, IgG1, V domains shown, hu5E3 IgG1 vector mutant) VH: QVQLQQSGPEVKKPGASVKISCKASGYIFTSYYIQWVIHAPGQGLEWIGWIYPGNVNTKYNEKFKGKATLTADKSSSTAYMELSSLTSEDTAVYFCARMDYEGHYWGQGTTVTVSS VL: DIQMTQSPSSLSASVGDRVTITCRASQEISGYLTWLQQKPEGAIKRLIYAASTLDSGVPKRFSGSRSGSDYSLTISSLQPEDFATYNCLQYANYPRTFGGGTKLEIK", "top range"),
    ("5E3KCDR3-N93D + 5E3HCDR3-Y212F (antibody, IgG1, V domains shown, double combination in hu5E3 IgG1) VH: QVQLQQSGPEVKKPGASVKISCKASGYIFTSYYIQWVIHAPGQGLEWIGWIYPGNVNTKYNEKFKGKATLTADKSSSTAYMELSSLTSEDTAVYFCARMDYEAHFWGQGTTVTVSS VL: DIQMTQSPSSLSASVGDRVTITCRASQEISGYLTWLQQKPEGAIKRLIYAASTLDSGVPKRFSGSRSGSDYSLTISSLQPEDFATYNCLQYADYPRTFGGGTKLEIK", "bottom range"),
    ("5E3HCDR3-E209Q (antibody, IgG1, V domains shown, hu5E3 IgG1 vector mutant) VH: QVQLQQSGPEVKKPGASVKISCKASGYIFTSYYIQWVIHAPGQGLEWIGWIYPGNVNTKYNEKFKGKATLTADKSSSTAYMELSSLTSEDTAVYFCARMDYQAHYWGQGTTVTVSS VL: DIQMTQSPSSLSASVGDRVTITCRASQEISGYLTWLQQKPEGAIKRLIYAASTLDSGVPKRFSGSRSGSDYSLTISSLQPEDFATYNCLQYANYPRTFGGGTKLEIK", "center range"),
    ("5E3KCDR3-A116Y (antibody, IgG1, V domains shown, hu5E3 IgG1 vector mutant) VH: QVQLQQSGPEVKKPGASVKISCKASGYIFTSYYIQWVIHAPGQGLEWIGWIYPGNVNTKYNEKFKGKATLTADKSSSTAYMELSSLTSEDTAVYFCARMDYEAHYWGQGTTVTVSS VL: DIQMTQSPSSLSASVGDRVTITCRASQEISGYLTWLQQKPEGAIKRLIYAASTLDSGVPKRFSGSRSGSDYSLTISSLQPEDFATYNCLQYYNYPRTFGGGTKLEIK", "bottom range"),
]

Field: next binder
Enquiry: Returns: class label. Input: 5E3KCDR3-L89I + 5E3HCDR3-Y212F (antibody, IgG1, V domains shown, double combination in hu5E3 IgG1) VH: QVQLQQSGPEVKKPGASVKISCKASGYIFTSYYIQWVIHAPGQGLEWIGWIYPGNVNTKYNEKFKGKATLTADKSSSTAYMELSSLTSEDTAVYFCARMDYEAHFWGQGTTVTVSS VL: DIQMTQSPSSLSASVGDRVTITCRASQEISGYLTWLQQKPEGAIKRLIYAASTLDSGVPKRFSGSRSGSDYSLTISSLQPEDFATYNCIQYANYPRTFGGGTKLEIK
Return: center range
